Consider the following molecules and their measured pIC50 readings.
molecular target: Nav1.7 (or SCN9A) channel; HEK cells stably transfected with hSCN9A (Homo sapiens, UniProt Q15858); construct: expressed in transfected cells; test: Nav1.7 block, PatchXpress 7000 automated whole-cell voltage clamp, estimated IC50 (EIC50); assay type: cell-based; conditions: estimated IC50; hSCN9A HEK cells, PatchXpress platform; Examples 815-1040
Sequence (Q15858 whole entry): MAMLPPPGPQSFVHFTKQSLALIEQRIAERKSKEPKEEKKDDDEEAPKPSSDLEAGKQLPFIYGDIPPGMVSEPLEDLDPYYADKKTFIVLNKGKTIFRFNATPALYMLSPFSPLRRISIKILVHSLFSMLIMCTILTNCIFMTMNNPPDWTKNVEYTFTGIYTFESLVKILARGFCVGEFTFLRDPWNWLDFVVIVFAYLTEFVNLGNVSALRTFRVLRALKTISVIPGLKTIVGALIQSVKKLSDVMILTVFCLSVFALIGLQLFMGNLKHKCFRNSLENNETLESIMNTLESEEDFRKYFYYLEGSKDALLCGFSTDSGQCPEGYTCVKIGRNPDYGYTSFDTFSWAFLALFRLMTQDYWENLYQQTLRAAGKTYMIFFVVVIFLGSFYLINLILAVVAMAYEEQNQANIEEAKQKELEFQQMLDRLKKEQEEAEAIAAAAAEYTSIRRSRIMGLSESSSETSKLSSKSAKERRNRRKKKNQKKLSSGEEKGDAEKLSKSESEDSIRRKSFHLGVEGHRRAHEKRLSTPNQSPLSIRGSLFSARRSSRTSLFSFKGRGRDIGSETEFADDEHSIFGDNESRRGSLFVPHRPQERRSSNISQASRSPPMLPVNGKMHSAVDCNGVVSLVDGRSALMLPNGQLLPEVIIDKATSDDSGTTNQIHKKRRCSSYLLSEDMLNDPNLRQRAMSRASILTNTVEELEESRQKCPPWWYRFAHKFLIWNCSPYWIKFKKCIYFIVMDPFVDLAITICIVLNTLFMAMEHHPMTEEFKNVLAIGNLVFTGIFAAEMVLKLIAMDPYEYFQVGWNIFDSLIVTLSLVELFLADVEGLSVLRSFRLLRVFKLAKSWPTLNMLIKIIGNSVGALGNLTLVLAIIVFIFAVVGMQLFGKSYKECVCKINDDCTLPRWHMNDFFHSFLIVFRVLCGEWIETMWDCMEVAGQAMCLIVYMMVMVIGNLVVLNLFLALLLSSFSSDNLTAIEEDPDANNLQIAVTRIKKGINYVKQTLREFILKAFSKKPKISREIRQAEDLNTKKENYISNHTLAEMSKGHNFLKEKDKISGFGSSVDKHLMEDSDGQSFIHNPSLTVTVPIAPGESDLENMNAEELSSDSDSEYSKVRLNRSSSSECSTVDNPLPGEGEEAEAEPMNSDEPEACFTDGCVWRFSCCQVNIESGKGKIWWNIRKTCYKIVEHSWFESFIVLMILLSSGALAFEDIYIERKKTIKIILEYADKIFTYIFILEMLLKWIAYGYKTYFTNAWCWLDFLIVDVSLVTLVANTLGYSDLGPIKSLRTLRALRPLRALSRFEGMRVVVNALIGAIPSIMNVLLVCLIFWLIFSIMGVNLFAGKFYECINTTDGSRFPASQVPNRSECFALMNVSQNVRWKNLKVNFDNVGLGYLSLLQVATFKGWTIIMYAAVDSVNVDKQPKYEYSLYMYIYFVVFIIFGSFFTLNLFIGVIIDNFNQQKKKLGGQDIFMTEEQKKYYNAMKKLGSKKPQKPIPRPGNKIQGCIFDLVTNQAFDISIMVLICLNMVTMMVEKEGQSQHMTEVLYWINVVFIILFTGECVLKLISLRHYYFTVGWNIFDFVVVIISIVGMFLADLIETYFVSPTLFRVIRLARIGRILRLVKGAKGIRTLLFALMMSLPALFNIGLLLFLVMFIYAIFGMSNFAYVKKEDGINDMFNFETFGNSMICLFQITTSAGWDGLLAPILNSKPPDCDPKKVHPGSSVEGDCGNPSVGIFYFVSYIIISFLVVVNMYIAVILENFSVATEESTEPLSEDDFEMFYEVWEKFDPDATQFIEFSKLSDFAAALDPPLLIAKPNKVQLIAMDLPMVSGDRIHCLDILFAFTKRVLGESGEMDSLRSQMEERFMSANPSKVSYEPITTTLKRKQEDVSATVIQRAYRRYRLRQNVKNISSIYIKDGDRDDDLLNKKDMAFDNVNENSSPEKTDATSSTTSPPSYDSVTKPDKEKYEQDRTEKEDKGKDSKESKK
pIC50: −log10 of the molar value.
OBSERVABLE: pIC50

1. Cc1[nH]ncc1-c1cc(Cl)ccc1Oc1cc(F)c(S(=O)(=O)Nc2nncs2)cc1Cl
7.96
2. O=S(=O)(Nc1nncs1)c1cc(Cl)c(Oc2cc(C(F)(F)F)c(F)cc2-c2ccnnc2)cc1F
7.64
3. N#Cc1cc(S(=O)(=O)Nc2ncns2)ccc1Oc1ccc(Cl)cc1-c1cnco1
7.57
4. O=S(=O)(Nc1ncns1)c1cc(F)c(Oc2ccc(Cl)cc2-c2cnco2)cc1F
7.77

The measured values listed here are drawn from patent US8541588B2.
